System: 782815-120-R-J1-PDC complex spheroid viability
run_description: Anticancer human tumor 782815-120-R-J1-PDC patient-derived colon adenocarcinoma cell line growth inhibition [RAS]
study_conditions: second compound 0.003 µM; first compound 0.000949 µM; stronger effect = lower value
outcome_measure: viability, T/C (%)
Give a bare numeral; the unit % is implied.

{"compound": "CCc1c2c(nc3ccc(O)cc13)-c1cc3c(c(=O)n1C2)COC(=O)[C@]3(O)CC + CCn1c(-c2cc(N3CCN(C)CC3)cnc2C(C)OC)c2c3cc(ccc31)-c1csc(n1)CC(NC(=O)C1CC1C)C(=O)N1CCCC(N1)C(=O)OCC(C)(C)C2", "observed_result": 66.6}
{"compound": "CCc1c2c(nc3ccc(O)cc13)-c1cc3c(c(=O)n1C2)COC(=O)[C@]3(O)CC + CCn1c(-c2cccnc2C(C)OC)c2c3cc(ccc31)N1CCOC(CC(NC(=O)C(C(C)C)N(C)C(=O)C3(F)CCN(C(=O)C#CC(C)(C)N(C)C)CC3)C(=O)N3CCCC(N3)C(=O)OCC(C)(C)C2)C1", "observed_result": 89.9}
{"compound": "CC1(C)CCC(Nc2ncc(C(F)(F)F)c(-c3c[nH]c4c(P(C)(C)=O)c(C#N)ccc34)n2)CN1 (centres undefined) + CCn1c(-c2cc(N3CCN(C)CC3)cnc2C(C)OC)c2c3cc(ccc31)-c1csc(n1)CC(NC(=O)C1CC1C)C(=O)N1CCCC(N1)C(=O)OCC(C)(C)C2", "observed_result": 52.9}

INPUT: # viability, T/C lookup, item CC1(C)CCC(Nc2ncc(C(F)(F)F)c(-c3c[nH]c4c(P(C)(C)=O)c(C#N)ccc34)n2)CN1 (centres undefined) + CCn1c(-c2cccnc2C(C)OC)c2c3cc(ccc31)N1CCOC(CC(NC(=O)C(C(C)C)N(C)C(=O)C3(F)CCN(C(=O)C#CC(C)(C)N(C)C)CC3)C(=O)N3CCCC(N3)C(=O)OCC(C)(C)C2)C1
OUTPUT: 91.5

----------
System: 782815-120-R-J1-PDC complex spheroid viability
run_description: Anticancer human tumor 782815-120-R-J1-PDC cell line growth inhibition [RAS];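 further: spheroids exposed to compounds for 7 days before reading; 100% = DMSO vehicle control viability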
study_conditions: second compound 0.0949 µM; first compound 0.01 µM; stronger effect = lower value
Quick reference: viability, T/C of the listed items.

As a guide, the following entries are already answered.
{"molecule": "CC(C)n1nc(-c2ccc3oc(N)nc3c2)c2c(N)ncnc21 + CCn1c(-c2cc(N3CCN(C)CC3)cnc2C(C)OC)c2c3cc(ccc31)-c1csc(n1)CC(NC(=O)C1CC1C)C(=O)N1CCCC(N1)C(=O)OCC(C)(C)C2", "target_desc": "782815-120-R-J1-PDC complex spheroid viability", "viability, T/C": "14.2%"}
{"molecule": "CCN1CCN(Cc2ccc(Nc3ncc(F)c(-c4cc(F)c5nc(C)n(C(C)C)c5c4)n3)nc2)CC1 + CCn1c(-c2cc(N3CCN(C)CC3)cnc2C(C)OC)c2c3cc(ccc31)-c1csc(n1)CC(NC(=O)C1CC1C)C(=O)N1CCCC(N1)C(=O)OCC(C)(C)C2", "target_desc": "782815-120-R-J1-PDC complex spheroid viability", "viability, T/C": "15.7%"}
{"molecule": "Nc1ccn(C2OC(CO)C(O)C2(F)F)c(=O)n1 (centres undefined) + CCn1c(-c2cccnc2C(C)OC)c2c3cc(ccc31)N1CCOC(CC(NC(=O)C(C(C)C)N(C)C(=O)C3(F)CCN(C(=O)C#CC(C)(C)N(C)C)CC3)C(=O)N3CCCC(N3)C(=O)OCC(C)(C)C2)C1", "target_desc": "782815-120-R-J1-PDC complex spheroid viability", "viability, T/C": "71.8%"}

Kindly consider the entry below.
INPUT: # viability, T/C lookup, item CCN1CCN(Cc2ccc(Nc3ncc(F)c(-c4cc(F)c5nc(C)n(C(C)C)c5c4)n3)nc2)CC1 + CCn1c(-c2cccnc2C(C)OC)c2c3cc(ccc31)N1CCOC(CC(NC(=O)C(C(C)C)N(C)C(=O)C3(F)CCN(C(=O)C#CC(C)(C)N(C)C)CC3)C(=O)N3CCCC(N3)C(=O)OCC(C)(C)C2)C1
OUTPUT: 95.5%

----------
Tested on: 782815-120-R-J1-PDC complex spheroid viability
run_description: Anticancer human tumor 782815-120-R-J1-PDC cell line growth inhibition [RAS];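 further: spheroids exposed to compounds for 7 days before reading; 100% = DMSO vehicle control viability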
study_conditions: second compound 0.316 µM; first compound 3.16 µM; stronger effect = lower value
Decision: viability, T/C beneath 40% gives yes (1); viability, T/C meeting or exceeding 40% gives no (0).

{"molecule": "C[C@@H](NC(=O)c1ncnc(N)c1Cl)c1ncc(C(=O)Nc2cc(C(F)(F)F)c(Cl)cn2)s1 + C#Cc1c(F)ccc2cc(O)cc(-c3ncc4c(N5CC6CCC(C5)N6)nc(OCC56CCCN5CC(F)C6)nc4c3F)c12", "answer_label": "no (0)"}

INPUT: Criterion: viability, T/C strictly below 40%. Is it met by CC(C)NCC(C(=O)N1CCN(c2ncnc3c2C(C)CC3O)CC1)c1ccc(Cl)cc1 (stereo not given) + C#Cc1c(F)ccc2cc(O)cc(-c3ncc4c(N5CC6CCC(C5)N6)nc(OCC56CCCN5CC(F)C6)nc4c3F)c12 ?
OUTPUT: no (0)

INPUT: Criterion: viability, T/C strictly below 40%. Is it met by CC(=O)OC12COC1CC(O)C1(C)C(=O)C(O)C3=C(C)C(OC(=O)C(O)C(NC(=O)OC(C)(C)C)c4ccccc4)CC(O)(C(OC(=O)c4ccccc4)C21)C3(C)C (stereo not given) + C=CC(=O)N1CCN(c2nc(OCC3CCCN3C)nc3c(F)c(-c4nc(N)cc(C)c4C(F)(F)F)c(Cl)cc23)C(C)C1 ?
OUTPUT: yes (1)

INPUT: Criterion: viability, T/C strictly below 40%. Is it met by NC1c2ccccc2OC12CCN(c1cnc3c(N4CCCc5ncccc54)n[nH]c3n1)CC2 (stereo not given) + C#Cc1c(F)ccc2cc(O)cc(-c3ncc4c(N5CC6CCC(C5)N6)nc(OCC56CCCN5CC(F)C6)nc4c3F)c12 ?
OUTPUT: no (0)

INPUT: Criterion: viability, T/C strictly below 40%. Is it met by CCC(CC)c1cc(NC2CCC(N)C2)n2nccc2n1 (stereo not given) + C=CC(=O)N1CCN(c2nc(OCC3CCCN3C)nc3c(F)c(-c4nc(N)cc(C)c4C(F)(F)F)c(Cl)cc23)C(C)C1 ?
OUTPUT: yes (1)

----------
Test system: 782815-120-R-J1-PDC complex spheroid viability
run_description: Anticancer human tumor 782815-120-R-J1-PDC cell line growth inhibition [RAS];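 further: spheroids exposed to compounds for 7 days before reading; 100% = DMSO vehicle control viability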
study_conditions: second compound 10 µM; first compound 0.0316 µM; stronger effect = lower value
Quick reference: viability, T/C of the listed items.
Give a bare numeral; the unit % is implied.

As a guide, the following entries are already answered.
{"molecule": "O=C(c1ccc(F)c(F)c1Nc1ccc(I)cc1F)N1CC(O)([C@@H]2CCCCN2)C1 + C#Cc1c(F)ccc2cc(O)cc(-c3ncc4c(N5CC6CCC(C5)N6)nc(OCC56CCCN5CC(F)C6)nc4c3F)c12", "scale_unit": "%", "viability, T/C": 61.4}
{"molecule": "C=CC(=O)N1CCN(c2nc(OCC3CCCN3C)nc3c(F)c(-c4nc(N)cc(C)c4C(F)(F)F)c(Cl)cc23)C(C)C1 (centres undefined) + C#Cc1c(F)ccc2cc(O)cc(-c3ncc4c(N5CC6CCC(C5)N6)nc(OCC56CCCN5CC(F)C6)nc4c3F)c12", "scale_unit": "%", "viability, T/C": 93.6}
{"molecule": "CC(C)n1nc(-c2ccc3oc(N)nc3c2)c2c(N)ncnc21 + C#Cc1c(F)ccc2cc(O)cc(-c3ncc4c(N5CC6CCC(C5)N6)nc(OCC56CCCN5CC(F)C6)nc4c3F)c12", "scale_unit": "%", "viability, T/C": 88.8}
{"molecule": "CC1(O)CCCC1n1c(=O)c(C(F)F)cc2cnc(NC3CCN(S(C)(=O)=O)CC3)nc21 (centres undefined) + C#Cc1c(F)ccc2cc(O)cc(-c3ncc4c(N5CC6CCC(C5)N6)nc(OCC56CCCN5CC(F)C6)nc4c3F)c12", "scale_unit": "%", "viability, T/C": 70.7}
{"molecule": "C[C@@H](NC(=O)c1ncnc(N)c1Cl)c1ncc(C(=O)Nc2cc(C(F)(F)F)c(Cl)cn2)s1 + C#Cc1c(F)ccc2cc(O)cc(-c3ncc4c(N5CC6CCC(C5)N6)nc(OCC56CCCN5CC(F)C6)nc4c3F)c12", "scale_unit": "%", "viability, T/C": 105}
{"molecule": "CCN1CCN(Cc2ccc(Nc3ncc(F)c(-c4cc(F)c5nc(C)n(C(C)C)c5c4)n3)nc2)CC1 + C#Cc1c(F)ccc2cc(O)cc(-c3ncc4c(N5CC6CCC(C5)N6)nc(OCC56CCCN5CC(F)C6)nc4c3F)c12", "scale_unit": "%", "viability, T/C": 95.3}
{"molecule": "CC(=O)OC12COC1CC(O)C1(C)C(=O)C(O)C3=C(C)C(OC(=O)C(O)C(NC(=O)OC(C)(C)C)c4ccccc4)CC(O)(C(OC(=O)c4ccccc4)C21)C3(C)C (centres undefined) + C#Cc1c(F)ccc2cc(O)cc(-c3ncc4c(N5CC6CCC(C5)N6)nc(OCC56CCCN5CC(F)C6)nc4c3F)c12", "scale_unit": "%", "viability, T/C": 35.7}
{"molecule": "NC1c2ccccc2OC12CCN(c1cnc3c(N4CCCc5ncccc54)n[nH]c3n1)CC2 (centres undefined) + C#Cc1c(F)ccc2cc(O)cc(-c3ncc4c(N5CC6CCC(C5)N6)nc(OCC56CCCN5CC(F)C6)nc4c3F)c12", "scale_unit": "%", "viability, T/C": 101}

Kindly consider the entry below.
INPUT: # viability, T/C lookup, item CC(Nc1ccc2c(c1)OCCn1cc(N3C(=O)OCC3C(F)F)nc1-2)C(N)=O (centres undefined) + C#Cc1c(F)ccc2cc(O)cc(-c3ncc4c(N5CC6CCC(C5)N6)nc(OCC56CCCN5CC(F)C6)nc4c3F)c12
OUTPUT: 102
